System: batrachotoxin (BTX) binding site (binding site 2) of the sodium channel
Experiment: Bond test on the sodium channel, binding site 2 (BTX bond), [3H]-batrachotoxinin A20 α-benzoate displacement
Conditions: rat cerebrocortex synaptosomes
BTX bond, 10 μM, % inhibition for assorted compounds
observed_property: BTX bond, 10 μM, % inhibition (%)

Cc1ccc(S(=O)(=O)N2CCC3(CC2)CC(C(=O)NCCN(C)C)=NO3)cc1 = 45
O=C(NC1CCCC1OCc1ccccc1)C1=NOC2(CCN(S(=O)(=O)c3ccc(Cl)s3)CC2)C1 (centres unmarked) = 75
O=C(C1=NOC2(CCN(S(=O)(=O)c3cc(Cl)ccc3Cl)CC2)C1)N(CCc1ccccc1)Cc1ccccc1 = 56
O=C(C1=NOC2(CCN(S(=O)(=O)c3cccc(C(F)(F)F)c3)CC2)C1)N1CCN(CCCc2ccccc2)CC1 = 72
CCCC(=O)N1CCC2(CC1)CC(C(=O)NC1CCN(C(=O)OCC)CC1)=NO2 = 47
CCCC(=O)N1CCC2(CC1)CC(C(=O)Nc1ccccc1)=NO2 = 62
COC(=O)C(Cc1c[nH]c2ccccc12)NC(=O)C1=NOC2(CCN(S(=O)(=O)c3ccc(OC(F)(F)F)cc3)CC2)C1 (centres unmarked) = 68
CC(Oc1ccccc1)C(=O)N1CCC2(CC1)CC(C(=O)NCc1ccccc1)=NO2 (centres unmarked) = 40
